B1: Caulobacter ParB omega fusion; a variant is named by its letters at X, in order, B8GW30 (parent)
chain: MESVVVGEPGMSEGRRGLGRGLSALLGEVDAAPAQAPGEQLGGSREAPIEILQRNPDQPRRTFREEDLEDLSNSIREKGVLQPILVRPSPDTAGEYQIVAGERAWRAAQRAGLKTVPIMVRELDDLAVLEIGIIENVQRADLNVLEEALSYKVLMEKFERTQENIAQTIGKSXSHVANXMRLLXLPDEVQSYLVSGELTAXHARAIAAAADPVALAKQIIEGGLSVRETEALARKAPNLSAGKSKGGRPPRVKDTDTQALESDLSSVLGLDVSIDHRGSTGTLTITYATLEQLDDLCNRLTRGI

Variants of: B1
testProtocol: one-hybrid fitness for binding NBS DNA (the Noc-binding site; scaled: cognate 1, non-cognate 0); higher = stronger binding
details: with NBS DNA site
Over roughly 81,000 sequences, “one-hybrid fitness for binding NBS DNA” has its median near -0.1; the highest 2% begin near 0.36. For the sample, the highest values were picked, then their nearest neighbours and some sequences at random.
# one-hybrid fitness for binding NBS DNA per entry

# count of solved cases: 3
{"columns": ["mutant", "dataValue"],
 "data": [
  ["GKLS", "≤ 0.2"],
  ["RYQF", "≤ 0.2"],
  ["FPKF", "≤ 0.2"]
]}

Query :: Which one-hybrid fitness for binding NBS DNA is listed for RRVD ?
Result :: ≤ 0.2

Query :: Which one-hybrid fitness for binding NBS DNA is listed for GPWT ?
Result :: ≤ 0.2

Query :: Which one-hybrid fitness for binding NBS DNA is listed for CRKT ?
Result :: 0.365

Query :: Which one-hybrid fitness for binding NBS DNA is listed for QMTS ?
Result :: 0.403

Query :: Which one-hybrid fitness for binding NBS DNA is listed for QKAN ?
Result :: ≤ 0.2

Query :: Which one-hybrid fitness for binding NBS DNA is listed for TCYM ?
Result :: ≤ 0.2

Query :: Which one-hybrid fitness for binding NBS DNA is listed for QKTN ?
Result :: ≤ 0.2

Query :: Which one-hybrid fitness for binding NBS DNA is listed for RRKM ?
Result :: 0.647
